Test: Bioavailability in Beagle dogs
Format: ADME, organism-based, Canis lupus familiaris
Conditions: dog, in vivo, read-out: Bioavailabiility
quantityMeasured: bioavailability (%)
Give a bare numeral; the unit % is implied.

I am curious: what bioavailability value has been reported for `CCCCN(CC)c1cc(C)nc2c1NC(=O)CN2c1ccc(OC)nc1OC` ?
24

---

Sequence of the target: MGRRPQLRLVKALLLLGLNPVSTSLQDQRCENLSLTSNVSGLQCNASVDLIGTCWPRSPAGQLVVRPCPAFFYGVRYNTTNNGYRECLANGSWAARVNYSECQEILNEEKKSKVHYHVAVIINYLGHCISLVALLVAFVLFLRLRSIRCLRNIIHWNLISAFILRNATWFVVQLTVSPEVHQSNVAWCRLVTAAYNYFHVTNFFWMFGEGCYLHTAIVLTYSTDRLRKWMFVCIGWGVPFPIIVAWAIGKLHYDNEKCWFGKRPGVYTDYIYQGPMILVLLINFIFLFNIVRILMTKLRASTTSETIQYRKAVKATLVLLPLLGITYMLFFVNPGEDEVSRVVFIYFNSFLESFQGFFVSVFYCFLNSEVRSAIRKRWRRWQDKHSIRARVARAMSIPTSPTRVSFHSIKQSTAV
quantityMeasured: log10(IC50) (log10 of the value in nM)
Recorded IC50 (log10, nM)

Example compounds with recorded log10(IC50):
1. CCN(CC1CCCO1)c1cc(C)nc2c1NC(=O)CN2c1ccc(C(C)C)cc1Br (centres undefined)	0.61
2. CCCCN(CC)c1cc(C)nc2c1NC(=O)CN2c1ccc(OC)nc1C	0.62

Now look at this entry.
I am curious: what log10(IC50) value has been reported for `CCCCN(CC)c1cc(C)nc2c1NC(=O)CN2c1ccc(OC)cc1C` ?
-0.04

---

Test: Mean total plasma concentration was determined in the defensive withdrawal model of rats after oral administration; Dose 10 mg/kg
Format: ADME, organism-based
Parameters: dose 10 mg/kg, route oral
Details: rat, in vivo, read-out: Mean total plasma concentration
quantityMeasured: concentration (nM)
Give a bare numeral; the unit nM is implied.

I am curious: what concentration value has been reported for `CCCCN(CC)c1cc(C)nc2c1NC(=O)CN2c1ccc(OC)nc1OC` ?
61.5

---

Assay: Volume of distribution in Beagle dogs
Assay type: ADME, organism-based, Canis lupus familiaris
Conditions: dog, in vivo
quantityMeasured: Volume of distribution
Value and unit, in that order.

I am curious: what Volume of distribution value has been reported for `CCCCN(CC)c1cc(C)nc2c1NC(=O)CN2c1ccc(OC)nc1OC` ?
40.6 L/kg

---

Protein target, amino acids: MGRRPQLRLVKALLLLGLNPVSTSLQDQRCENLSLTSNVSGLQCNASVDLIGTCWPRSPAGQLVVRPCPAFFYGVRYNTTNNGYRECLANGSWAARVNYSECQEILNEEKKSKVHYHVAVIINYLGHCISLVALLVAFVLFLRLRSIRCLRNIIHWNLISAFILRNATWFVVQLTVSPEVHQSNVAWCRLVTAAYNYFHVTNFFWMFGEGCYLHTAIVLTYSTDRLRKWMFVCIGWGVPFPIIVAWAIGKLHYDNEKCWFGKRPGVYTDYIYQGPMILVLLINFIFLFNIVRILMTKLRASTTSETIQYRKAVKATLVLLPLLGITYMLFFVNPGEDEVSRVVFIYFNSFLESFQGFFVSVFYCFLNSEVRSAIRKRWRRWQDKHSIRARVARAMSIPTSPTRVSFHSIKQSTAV
quantityMeasured: pIC50
# pIC50 is unitless: minus log10 of the molar concentration; print number only

I am curious: what pIC50 value has been reported for `CCCCN(CC)c1cc(C)nc2c1NC(=O)CN2c1cc(F)c(OC)cc1Cl` ?
9.30

I am curious: what pIC50 value has been reported for `CCCCN(CC)c1cc(C)nc2c1NC(=O)CN2c1ccccc1Br` ?
8.15

I am curious: what pIC50 value has been reported for `CCCCN(CC)c1cc(C)nc2c1NC(=O)CN2c1ccc(C(C)C)cc1Cl` ?
9.04

I am curious: what pIC50 value has been reported for `CCCCN(CC)c1cc(C)nc2c1NC(=O)CN2c1ccc(Cl)cc1C#N` ?
8.00
